Below is a list of entries, each paired with its recorded GI50 value.
# Test system: MDA-MB-231
# EXPERIMENT: NCI tumour cell line growth inhibition, 48 h
Activity calls are given as the source filed them. No stated cut-off is given here; in the data, active = GI50 up to about 1.1 µM and inactive = higher.

{"COMPOUND": "CC1CC(C)[C@H](O)C([C@H](O)CC2CC(=O)N(C)C(=O)C2)C1 (stereo partly drawn)", "MEASURED_VALUE": "> 100 µM (inactive)"}
{"COMPOUND": "NCCN/C(=N\\c1ccccc1)Nc1ccccc1", "MEASURED_VALUE": "> 100 µM (inactive)"}
{"COMPOUND": "CN1CCOC1(C)CO (stereo not drawn)", "MEASURED_VALUE": "> 100 µM (inactive)"}

Problem: Input Cc1n[nH]c(=O)n1/N=C/c1cccc(Cl)c1 , output reported GI50.
Solution: > 100 µM (inactive)

Problem: Input CC1=CC(=O)C(=C(C)C)CC1 , output reported GI50.
Solution: > 100 µM (inactive)

Problem: Input C#CCNC(CS)C(=O)O (stereo not drawn) , output reported GI50.
Solution: > 100 µM (inactive)

Problem: Input O=C(OCc1ccccc1)C(Cc1ccc(OCc2ccccc2)cn1)NC(=O)C(F)(F)F (stereo not drawn) , output reported GI50.
Solution: > 100 µM (inactive)

====

Below is a list of entries, each paired with its recorded GI50 value.
# Test system: MOLT-4
# EXPERIMENT: NCI tumour cell line growth inhibition, 48 h
Active and inactive are the calls of the source. Rule as the data show it: active = GI50 up to about 1.1 µM and inactive = higher.

{"COMPOUND": "O=S(=O)(c1ccccc1)C1CN2OC1(S(=O)(=O)c1ccccc1)CC2c1ccc(Br)cc1 (stereo not given)", "TARGET_OF_ASSAY": "MOLT-4", "GI50": "> 100 µM (inactive)"}
{"COMPOUND": "NC(=O)N1N=C2c3ccccc3CC[C@@H]2C1c1ccccc1 (stereo not given in full)", "TARGET_OF_ASSAY": "MOLT-4", "GI50": "69 µM (inactive)"}
{"COMPOUND": "CCOC(=O)/C(Br)=C1/OC(=O)c2ccccc2-c2ccccc21.CCOC(=O)/C(Br)=C1\\OC(=O)c2ccccc2-c2ccccc21", "TARGET_OF_ASSAY": "MOLT-4", "GI50": "14.7 µM (inactive)"}

Problem: Input CCOC(=O)c1nc2ccc(C(F)(F)F)cc2nc1Oc1ccc(F)cc1 , output reported GI50.
Solution: > 100 µM (inactive)

Problem: Input CC(C)/C=C1\CCC(CN2CCOCC2)C1=O (stereo not given) , output reported GI50.
Solution: 2.99 µM (inactive)

Problem: Input OC/C=C/[C@H](OCc1ccccc1)[C@H](/C=C/CO)OCc1ccccc1 , output reported GI50.
Solution: 13.7 µM (inactive)

Problem: Input O=c1ccc2ccccc2c2ccccc12 , output reported GI50.
Solution: 3.78 µM (inactive)

====

# Tested on: OVCAR-3
# EXPERIMENT: NCI tumour cell line growth inhibition, 48 h
The source made the active and inactive calls. Cut-off read from the data, not from the text of the source: active = GI50 up to about 1.1 µM and inactive = higher. *1 amine or outer side, *2 acyl side, *3 side chain or, on linkers, in order; H or OH if unused. Where a SMILES comes first, the peptide text is derived from it. [ ]: non-standard residue; d: D form. The star is where a group is joined. ξ: configuration not given here. X26 = O=C([C@H]1CCC[C@H]1N[*:1])[*:2]; ξW = NC(Cc1c[nH]c2ccccc12)C(=O)O; ξF = NC(Cc1ccccc1)C(=O)O; Boc = CC(C)(C)OC(=O)*; ξK = NCCCCC(N)C(=O)O; ξT = CC(O)C(N)C(=O)O; tBu = CC(C)(C)*
The reply should name one outcome from Y = active, N = inactive

Solved entries:
{"MOLECULE": "Cc1cc(C)nc(Nc2nc3cc([N+](=O)[O-])ccc3[nH]2)n1", "ASSIGNED_CLASS": "N"}
{"MOLECULE": "C[Si](C)(C)c1ccc(CC2(Cc3ccc([Si](C)(C)C)cc3)CCNC2)cc1", "ASSIGNED_CLASS": "N"}
{"MOLECULE": "CC(OC(C)(C)C)C1NC(=O)C(CCCCNC(=O)OC(C)(C)C)NC(=O)C(Cc2c[nH]c3ccccc23)NC(=O)C(Cc2ccccc2)NC(=O)[C@H]2CCC[C@H]2NC(=O)C(Cc2ccccc2)NC1=O (stereo not given in full) (cyclo([X26][ξF][ξW][ξK](Boc)[ξT](tBu)[ξF]))", "ASSIGNED_CLASS": "N"}
{"MOLECULE": "COc1ccc2c3c([nH]c2c1)[C@H]1C[C@H]2[C@H](C[C@@H](O)[C@H](OC)[C@H]2C(=O)O)CN1CC3", "ASSIGNED_CLASS": "N"}
{"MOLECULE": "O=S1(=O)OCCCOS(=O)(=O)C1Br", "ASSIGNED_CLASS": "N"}
{"MOLECULE": "C#CCNC(CS)C(=O)O (stereo not given)", "ASSIGNED_CLASS": "N"}
{"MOLECULE": "Cc1cc(O)cc(O)c1/N=N/c1ccc([N+](=O)[O-])cc1", "ASSIGNED_CLASS": "N"}
{"MOLECULE": "O=c1ccc2ccccc2c2ccccc12", "ASSIGNED_CLASS": "N"}
{"MOLECULE": "O=C1c2ccccc2S(=O)(=O)c2ccccc21", "ASSIGNED_CLASS": "N"}
{"MOLECULE": "Cn1c(=O)c2c(nc3n2C(CCl)CO3)n(C)c1=O (stereo not given)", "ASSIGNED_CLASS": "N"}

Problem: Which result was noted for this molecule in the test: CO[C@@H]1C[C@H]2[C@@H]3CC[C@H]([C@H](C)CO)[C@@]3(C)CC[C@@H]2[C@@]2(C)CC[C@H]3C[C@]312
Solution: N

Problem: Which result was noted for this molecule in the test: O=C1C=C(Nc2ccc(Cl)cc2C(=O)c2ccccc2)c2ccccc2C1=O
Solution: N

Problem: Which result was noted for this molecule in the test: O=c1n(C2CCCCC2)c(=C(Cl)Cl)c(=C(Cl)Cl)n1C1CCCCC1
Solution: N

Problem: Which result was noted for this molecule in the test: O=C(/C=N/c1ccccc1[S-])c1ccco1.O=C(/C=N/c1ccccc1[S-])c1ccco1.[Zn+2]
Solution: N

Problem: Which result was noted for this molecule in the test: CC(NC(=O)C(N)CC(=O)O)NC(=O)C1CCC1 (stereo not given)
Solution: N

Problem: Which result was noted for this molecule in the test: O=C(O)CNCP(=O)(O)O [GLYPHOSATE]
Solution: N

Problem: Which result was noted for this molecule in the test: O=C(Nc1ccn(CCOC(=O)c2ccccc2)c(=O)n1)c1ccccc1
Solution: N

====

# Test system: SF-539
# EXPERIMENT: NCI tumour cell line growth inhibition, 48 h
Active and inactive are the calls of the source. Rule as the data show it: active = GI50 up to about 1.1 µM and inactive = higher.
MEASUREMENT_NAME: GI50

{"COMPOUND_STRUCTURE": "NS(=O)(=O)c1ccc(NNc2c3ccccc3nc3c(C(=O)Nc4ccc(S(=O)(=O)Nc5ncccn5)cc4)cccc23)cc1", "GI50": "> 25 µM (inactive)"}

Problem: Input CCc1c(O)cc(=O)oc1-c1ccc(OC)c(OC)c1 , output reported GI50.
Solution: > 100 µM (inactive)

Problem: Input COc1ccc(/C=C/c2cc(OC)c(O[Si](C)(C)C(C)(C)C)c(OC)c2)cc1 , output reported GI50.
Solution: > 100 µM (inactive)

Problem: Input C/C(=N\NC(=O)C(N)=O)c1c(O)cc(C)oc1=O , output reported GI50.
Solution: > 100 µM (inactive)

Problem: Input Nc1nc(N)c(-c2ccccc2)c(C(=O)Nc2ccc(Cl)c(Cl)c2)n1 , output reported GI50.
Solution: > 100 µM (inactive)

Problem: Input O=C(O)c1cnc2cc(OCc3ccccc3)ccc2c1O , output reported GI50.
Solution: 19 µM (inactive)

====

# Test system: RPMI-8226
# EXPERIMENT: NCI tumour cell line growth inhibition, 48 h
The source made the active and inactive calls. Rule as the data show it: active = GI50 up to about 1.1 µM and inactive = higher.
The reply should name one outcome from y = active, n = inactive

Solved entries:
{"MOLECULE": "O=C1/C(=C\\c2ccccc2)c2ccccc2N1Cc1ccccc1", "TARGET_OF_ASSAY": "RPMI-8226", "ASSIGNED_CLASS": "n"}
{"MOLECULE": "Nc1nc2[nH]c(=O)cnc2c(=O)[nH]1 [ISOXANTHOPTERIN]", "TARGET_OF_ASSAY": "RPMI-8226", "ASSIGNED_CLASS": "n"}
{"MOLECULE": "CCC/C=C/c1cc2c(cc1O)CC[C@@H]1[C@@H]2CC[C@]2(C)[C@@H](O)CC[C@@H]12", "TARGET_OF_ASSAY": "RPMI-8226", "ASSIGNED_CLASS": "n"}
{"MOLECULE": "C1CN(c2nc3c(nnc4nc(N5CCOCC5)sc43)s2)CCO1", "TARGET_OF_ASSAY": "RPMI-8226", "ASSIGNED_CLASS": "n"}
{"MOLECULE": "Cc1nn(-c2nc3ccccc3s2)c2c1C(=O)c1ccccc1-2", "TARGET_OF_ASSAY": "RPMI-8226", "ASSIGNED_CLASS": "n"}

Problem: Which result was noted for this molecule in the test: CCOC(=O)[C@@]12C[C@](/C=C/OC)(O[Si](C)(C)C)[C@@]13c1cc(OC)c(OC)cc1CCN3C(=O)C2=O
Solution: n

Problem: Which result was noted for this molecule in the test: CC(C)OP(=O)(CCCCCCCCC/C=C/c1ccc2c(c1)OCCOCCOCCOCCO2)OC(C)C
Solution: n

Problem: Which result was noted for this molecule in the test: COc1cc(C2c3cc4c(cc3[C@@H](NCCN(C)C)C3COC(=O)[C@H]23)OCO4)cc(OC)c1O (some centres undefined)
Solution: y

Problem: Which result was noted for this molecule in the test: COC(=O)C1=C(CCC[C@H](C)O[Si](C)(C)C(C)(C)C)NC(=O)N2[C@@H](CCO)CC[C@H]12
Solution: n
